Each entry below carries its recorded protein stability index.
B1: TMEM106C (parent)
chain: YVTTNVSLIPPRSEQLVNFTGKAE

Variants of: B1
Experimental Protocol: protein stability index of a GFP-peptide fusion (GPS, HEK-293T) (PSI 1-6); higher = more stable;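 note: lentivirally expressed fusions sorted by FACS into six bins by GFP to DsRed ratio, PSI derived from sequencing read proportions per bin multiplied by bin number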
Condition Notes: c terminus: a fixed tail appended
Enter a number only.

YVTTNVSLIPPRSEQLVNFTGKAL [E24L] : 2.08
YVTTNVSLIPPRSEQLVNFTGKAS [E24S] : 2.1
YVTTNVSLIPPRSEQLVNHTGKAE [F19H] : 2.56
YVTTNVSLIPPRSQQLVNFTGKAE [E14Q] : 1.5
YVTTNVSLIPPRSEGLVNFTGKAE [Q15G] : 2.37

**Query** Indicate its recorded protein stability index; the variant in question is YVTTNVSLIPPRSEQLVNFTGKSE [A23S]
**Result** 1.54

**Query** Indicate its recorded protein stability index; the variant in question is YVTTNVDLIPPRSEQLVNFTGKAE [S7D]
**Result** 2.37

**Query** Indicate its recorded protein stability index; the variant in question is YVTTNVSLIPPRSEQKVNFTGKAE [L16K]
**Result** 1.9

**Query** Indicate its recorded protein stability index; the variant in question is YVTTNVSLIPPRSEQLVNYTGKAE [F19Y]
**Result** 1.9

**Query** Indicate its recorded protein stability index; the variant in question is YVTTNVSLIPPRSEDLVNFTGKAE [Q15D]
**Result** 2.08

**Query** Indicate its recorded protein stability index; the variant in question is YVTTNVSLHPPRSEQLVNFTGKAE [I9H]
**Result** 2.46

**Query** Indicate its recorded protein stability index; the variant in question is YVTTNVSLIPPRSEQLVNFTGKWE [A23W]
**Result** 2.51

**Query** Indicate its recorded protein stability index; the variant in question is YVTTNVSLIPPESEQLVNFTGKAE [R12E]
**Result** 1.9

**Query** Indicate its recorded protein stability index; the variant in question is YVTTNFSLIPPRSEQLVNFTGKAE [V6F]
**Result** 3.64

**Query** Indicate its recorded protein stability index; the variant in question is QVTTNVSLIPPRSEQLVNFTGKAE [Y1Q]
**Result** 3.17

**Query** Indicate its recorded protein stability index; the variant in question is YVTTNVSLIAPRSEQLVNFTGKAE [P10A]
**Result** 3.06

**Query** Indicate its recorded protein stability index; the variant in question is YVTTNVSLFPPRSEQLVNFTGKAE [I9F]
**Result** 1.7

**Query** Indicate its recorded protein stability index; the variant in question is YVTTNVSLIPPRSEQLVNFTGKPE [A23P]
**Result** 1.77
